# Tested Target: Acetoacetyl-coenzyme A thiolase (Rattus norvegicus)
# Sequence (Q5XI22 whole entry): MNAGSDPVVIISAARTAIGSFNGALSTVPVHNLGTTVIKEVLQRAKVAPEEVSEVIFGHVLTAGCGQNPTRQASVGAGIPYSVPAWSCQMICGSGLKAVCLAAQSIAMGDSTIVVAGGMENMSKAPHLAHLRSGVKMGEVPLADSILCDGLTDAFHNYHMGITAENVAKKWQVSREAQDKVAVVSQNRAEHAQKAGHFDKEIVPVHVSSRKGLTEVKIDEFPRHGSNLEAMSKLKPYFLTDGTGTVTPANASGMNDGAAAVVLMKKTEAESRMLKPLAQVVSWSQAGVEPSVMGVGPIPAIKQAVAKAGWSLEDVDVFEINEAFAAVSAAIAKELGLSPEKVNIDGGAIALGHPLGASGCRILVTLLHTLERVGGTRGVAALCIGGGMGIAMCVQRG
Measurement Type: pIC50
Please express pIC50 as -log10 of the molar concentration.

Exercise: Form field: reported pIC50 of CC#CC#CC#C[C@@H](OC)[C@@H]1OC(=O)O[C@H]1CCCCCCC(=O)OC
Key: 6.25

Where do the numbers come from? From patent US4920106A.
